# System: C. elegans complex IV (cytochrome C oxidase)
# assay.text: In vitro complex IV activity assay, C. elegans mitochondria
# Format: biochemical, Caenorhabditis elegans
# condition.summary: 100 µM compound, relative to solvent control, mean (SEM)
measured.metric: % Activity Complex IV

- compound: "C=C(C)[C@H]1Cc2c(ccc3c2O[C@@H]2COc4cc(OC)c(OC)cc4[C@@H]2C3=O)O1 [Rotenone, reference compound]"
  % Activity Complex IV: "99.57 (1.12) %"
- compound: "O=C1OC(c2ccccc2)=NC1=CC=Cc1ccccc1 (mixture of isomers) [NPD8298]"
  % Activity Complex IV: "108.05 (2.17) %"
- compound: "Cc1cc(O)c(C(=O)/C=C/c2ccccc2)c(=O)o1 [NPD8366]"
  % Activity Complex IV: "97.72 (2.77) %"
- compound: "CCCCCC[C@H]1C(=O)O[C@H](C)[C@H](NC(=O)c2cccc(NC=O)c2O)C(=O)O[C@@H](C)[C@@H]1OC(=O)CC(C)C [Antimycin A, reference compound]"
  % Activity Complex IV: "94.00 (1.10) %"

Let us examine a further case.
Ask | Data request, read-out % Activity Complex IV, for COc1ccc(-c2cc(=Nc3ccc(C)cc3)c3ccccc3o2)cc1OC [NPD1450]
Reply | 117.12 (3.30) %

* * *

# experimental.target: C. elegans (N2) complex I (NADH:ubiquinone oxidoreductase) (Caenorhabditis elegans, UniProt P24887+Q93873+Q94360)
# Sequence (Q94360 17-199): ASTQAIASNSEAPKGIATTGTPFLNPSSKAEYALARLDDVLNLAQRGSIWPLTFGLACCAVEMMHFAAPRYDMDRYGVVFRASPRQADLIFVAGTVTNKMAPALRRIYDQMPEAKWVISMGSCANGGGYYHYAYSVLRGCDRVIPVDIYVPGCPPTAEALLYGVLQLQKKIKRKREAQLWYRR
# Sequence (P24887 whole entry): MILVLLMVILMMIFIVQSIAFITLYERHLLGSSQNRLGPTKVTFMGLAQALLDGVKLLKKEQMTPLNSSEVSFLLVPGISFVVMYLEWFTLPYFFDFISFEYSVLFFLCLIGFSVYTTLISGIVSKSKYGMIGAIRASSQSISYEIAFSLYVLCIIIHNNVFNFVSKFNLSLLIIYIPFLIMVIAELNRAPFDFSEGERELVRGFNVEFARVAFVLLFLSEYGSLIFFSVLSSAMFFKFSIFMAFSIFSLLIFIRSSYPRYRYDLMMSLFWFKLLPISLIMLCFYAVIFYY
# Sequence (Q93873 31-482): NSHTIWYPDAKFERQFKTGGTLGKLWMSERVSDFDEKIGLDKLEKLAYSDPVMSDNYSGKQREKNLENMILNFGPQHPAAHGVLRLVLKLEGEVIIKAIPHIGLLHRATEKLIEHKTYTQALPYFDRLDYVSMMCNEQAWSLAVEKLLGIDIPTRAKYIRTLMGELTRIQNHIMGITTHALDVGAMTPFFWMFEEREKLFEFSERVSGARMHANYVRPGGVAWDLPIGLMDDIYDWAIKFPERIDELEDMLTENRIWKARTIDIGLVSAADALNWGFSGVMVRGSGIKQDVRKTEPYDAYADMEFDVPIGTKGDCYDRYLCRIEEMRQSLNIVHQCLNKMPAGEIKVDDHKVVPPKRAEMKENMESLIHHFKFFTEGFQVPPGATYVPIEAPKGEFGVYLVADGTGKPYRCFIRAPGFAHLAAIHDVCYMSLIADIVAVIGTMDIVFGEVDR
# assay.text: biochemical
# Type: biochemical
# condition.summary: in vitro complex I dose response on C. elegans mitochondria; average of at least two biological replicates; fit in R (DRC); read-out: IC50 C. elegans complex I
In this section we review reported IC50 values for a set of compounds.
Kindly provide the numeric value in nM only, without the unit symbol.

- compound: "C=CCn1c(-c2ccc(N(C)C)cc2)nc2ccccc21"
  IC50 [nM]: 13200
- compound: "Clc1ccc(Cn2cnc3ccccc32)cc1Cl"
  IC50 [nM]: 4380
- compound: "Cc1ccc(C(C)C)c(OCC(O)Cn2cnc3ccccc32)c1 (stereo not drawn)"
  IC50 [nM]: 360

Ask | IC50 lookup needed for Nc1nc2ccccc2n1CCCOc1ccccc1 , thanks.
Reply | 6900

Ask | Repeat for the following compound: Nc1nc2ccccc2n1Cc1ccc(Br)cc1
Reply | 340

Ask | Brc1ccc(Cn2cnc3ccccc32)cc1 ?
Reply | 530

Ask | # repeat for Cc1nc2ccccc2n1Cc1ccc(Cl)c(Cl)c1
Reply | 470

Ask | Would you kindly repeat that for Clc1ccc(Cn2cnc3ccccc32)c(Cl)c1 ?
Reply | 450

Ask | And the next one, c1ccc(-c2noc(CCCCc3nc4ccccc4[nH]3)n2)cc1 ?
Reply | 20600

* * *

This section presents molecules with their documented LC50 values.
# System: L1 wild-type C. elegans
# assay.text: whole plant or invertebrate
# condition.summary: Caenorhabditis elegans, 15 h, read-out: C. elegans KCN survival assay LC50
Please reply with the bare figure in µM and do not write the unit itself.

- molecule: "Cc1cc(C(C#N)c2ccc(Cl)cc2)c(Cl)cc1NC(=O)c1cc(I)cc(I)c1O (stereo not shown)"
  experimental.target: "L1 wild-type C. elegans"
  measured.metric: "LC50"
  observed.measurement: 0.332
- molecule: "O=C(Nc1ccc(Oc2ccc(Cl)cc2)c(Cl)c1)c1cc(I)cc(I)c1O [Rafoxanide]"
  experimental.target: "L1 wild-type C. elegans"
  measured.metric: "LC50"
  observed.measurement: 0.141
- molecule: "O=C(Nc1ccc([N+](=O)[O-])cc1Cl)c1cc(Cl)ccc1O [Niclosamide]"
  experimental.target: "L1 wild-type C. elegans"
  measured.metric: "LC50"
  observed.measurement: 0.0948

Ask | Any idea what LC50 was measured for O=C(Nc1cc(Cl)cc(Cl)c1O)c1c(O)c(Cl)cc(Cl)c1Cl [Oxyclozanide] ?
Reply | 0.158
